# Tested on: wild type HBV
# experiment.description: Anti-HBV assay in AD-38 cell line
# Assay type: cell-based
# reported.conditions: Hepatitis B virus; AD-38 cells, HBV in culture supernatant; read-out: Anti-HBV activity EC50
pEC50: −log10 of the molar value.
property.name: pEC50

Worked cases, pEC50 given:
| cpd.smiles | target.entity | property.name | reported.value |
| --- | --- | --- | --- |
| C#CCNC(=O)C(=O)c1c(C)c(C(=O)Nc2ccc(F)c(Cl)c2)n(C)c1C | wild type HBV | pEC50 | 8.05 to 9.00 |
| C#CCNC(=O)C(=O)c1c(C)c(C(=O)Nc2ccc(F)nc2)n(C)c1C | wild type HBV | pEC50 | 6.05 to 7.00 |
| C#CCNC(=O)C(=O)c1c(C)c(C(=O)NC2(c3ccc(F)c(F)c3)CC2)n(C)c1C | wild type HBV | pEC50 | 5.05 to 6.00 |

For the 4 molecules below, give their pEC50 values.
1. Cc1c(C(=O)C(=O)Nc2ccccn2)c(C)n(C)c1C(=O)Nc1ccc(F)c(F)c1
2. C#CCNC(=O)C(=O)c1c(C)c(C(=O)Nc2ccc(F)c(C#N)c2)n(C)c1C
3. C#CCNS(=O)(=O)c1cc(C(=O)Nc2ccc(F)c(F)c2)n(C)c1
4. C#CCNC(=O)C(=O)c1c(C)c(C(=O)Nc2ccc(S(F)(F)(F)(F)F)cc2)n(C)c1C

7.05 to 8.00
7.05 to 8.00
6.05 to 7.00
5.05 to 6.00

====

# experiment.description: Cellular toxicity assay in Vero cells
# Format: cell-based
# reported.conditions: African green monkey, read-out: Cytotoxicity
Exercise: state measured CC50 for each of the molecules provided.

| molecule | CC50 |
| --- | --- |
| C#CCNC(=O)C(=O)c1c(C)c(C(=O)Nc2cccc(OC(F)(F)F)c2)n(C)c1C [Compound 55] | 15 µM |

For the 4 molecules below, give their CC50 values.
1. Cc1c(C(=O)C(=O)NCc2c[nH]nn2)c(C)n(C)c1C(=O)Nc1ccc(F)c(F)c1 [Compound 38]
2. Cc1c(C(=O)C(=O)NCc2ccccn2)c(C)n(C)c1C(=O)Nc1ccc(F)c(F)c1 [Compound 47]
3. Cc1c(C(=O)C(=O)NCc2nccn2C)c(C)n(C)c1C(=O)Nc1ccc(F)c(F)c1 [Compound 48]
4. C#CCNC(=O)C(=O)c1c(C)c(C(=O)NC2(c3ccc(F)c(F)c3)CC2)n(C)c1C [Compound 57]

45 µM
51 µM
> 100 µM
> 100 µM

For the 4 molecules below, give their CC50 values.
1. Cn1cc(C(=O)C(=O)N2CC(F)(F)C2)cc1C(=O)Nc1ccc(F)c(F)c1 [Compound 32]
2. O=C(Nc1ccc(F)c(F)c1)c1cc(S(=O)(=O)NCc2cn(C3CC3)nn2)ccc1F [Compound 13]
3. C#CCNC(=O)C(=O)c1c(C)c(C(=O)Nc2ccc(OC(F)(F)F)cc2)n(C)c1C [Compound 54]
4. C#CCNC(=O)C(=O)c1c(C)c(C(=O)Nc2cccc(S(F)(F)(F)(F)F)c2)n(C)c1C [Compound 60]

1. > 100 µM
2. 55.6 µM
3. 6 µM
4. 82 µM

For the 3 molecules below, give their CC50 values.
1. C#CCNC(=O)C(=O)c1c(C)c(C(=O)Nc2ccc(F)c(C#N)c2)n(C)c1C [Compound 7b]
2. Cc1c(C(=O)C(=O)Nc2nc3ccccc3[nH]2)c(C)n(C)c1C(=O)Nc1ccc(F)c(F)c1 [Compound 46]
3. Cc1c(C(=O)C(=O)Nc2nccs2)c(C)n(C)c1C(=O)Nc1ccc(F)c(F)c1 [Compound 78]

1. > 100 µM
2. 10 µM
3. > 100 µM

====

# Tested on: wild type HBV
# experiment.description: Anti-HBV assay in AD-38 cell line
# Format: cell-based
# reported.conditions: Hepatitis B virus; AD-38 cells, HBV in culture supernatant; read-out: Anti-HBV activity EC50
pEC50: −log10 of the molar value.
property.name: pEC50

For the 5 compounds below, give their pEC50 values.
1. Cc1c(C(=O)C(=O)NCc2nn[nH]n2)c(C)n(C)c1C(=O)Nc1ccc(F)c(F)c1
2. Nc1ccn([C@@H]2CS[C@H](CO)O2)c(=O)n1 [Compound 3TC, lamivudine, reference compound]
3. Cn1cc(C(=O)C(=O)Nc2nccs2)cc1C(=O)Nc1ccc(F)c(F)c1
4. Cc1c(C(=O)C(=O)Nc2ccccn2)c(C)n(C)c1C(=O)Nc1ccccc1
5. C#CCNC(=O)C(=O)c1c(C)c(C(=O)Nc2ccccc2)n(C)c1C

["5.05 to 6.00", "6.05 to 7.00", "6.05 to 7.00", "7.05 to 8.00", "7.05 to 8.00"]

Could you share which pEC50 value was measured for `Cn1cc(C(=O)C(=O)N2CC(F)(F)C2)cc1C(=O)Nc1ccc(F)c(F)c1` ? 5.05 to 6.00

====

# experiment.description: Cellular toxicity assay in CEM cells
# Type: cell-based
# reported.conditions: human, CEM lymphoblastoid cells, read-out: Cytotoxicity
property.name: CC50

Worked cases, CC50 given:
| cpd.smiles | CC50 |
| --- | --- |
| C#CCNC(=O)C(=O)c1c(C)c(C(=O)Nc2ccc(F)nc2)n(C)c1C | > 100 µM |
| Cn1cc(C(=O)C(=O)N2CCOCC2)cc1C(=O)Nc1ccc(F)c(F)c1 | > 100 µM |

Could you share which CC50 value was measured for `Cn1cc(C(=O)C(=O)N2CC(F)(F)C2)cc1C(=O)Nc1ccc(F)c(F)c1` ? > 100 µM

====

Exercise: state measured EC50 for each of the molecules provided.
# Tested on: wild type HBV
# experiment.description: Anti-HBV assay in AD-38 cell line
# Type: cell-based
# reported.conditions: Hepatitis B virus; AD-38 cells, HBV in culture supernatant; read-out: Anti-HBV activity EC50

Worked cases, EC50 given:
| cpd.smiles | reported.value |
| --- | --- |
| Cc1c(C(=O)C(=O)N2CCOCC2)c(C)n(C)c1C(=O)Nc1ccc(F)c(F)c1 | 100 to 900 nM |
| Cc1c(C(=O)C(=O)N2CCN(C)CC2)c(C)n(C)c1C(=O)Nc1ccc(F)c(F)c1 | 100 to 900 nM |
| C=CCNC(=O)C(=O)c1cc(C(=O)Nc2ccc(F)c(F)c2)n(C)c1 | 10 to 90 nM |
| C#CCNC(=O)C(=O)c1c(C)c(C(=O)Nc2cccc(OC(F)(F)F)c2)n(C)c1C | 100 to 900 nM |

For the 8 molecules below, give their EC50 values.
1. Cc1c(C(=O)C(=O)NCc2ccccn2)c(C)n(C)c1C(=O)Nc1ccc(F)c(F)c1
2. Cn1cc(NS(=O)(=O)c2ccccc2)cc1C(=O)Nc1ccc(F)c(F)c1
3. C#CCNC(=O)C(=O)c1c(C)c(C(=O)NC(C)(C)c2ccc(F)c(F)c2)n(C)c1C
4. Cc1c(C(=O)C(=O)Nc2ccccc2)c(C)n(C)c1C(=O)Nc1ccc(F)c(F)c1
5. C#CCNC(=O)C(=O)c1c(C)c(C(=O)Nc2ccc(F)c(F)c2)n(C)c1C
6. CCN(CC)C(=O)C(=O)c1c(C)c(C(=O)Nc2ccc(F)c(F)c2)n(C)c1C
7. O=C(Nc1ccc(F)c(F)c1)c1cc(S(=O)(=O)NCc2cn(C3CC3)nn2)ccc1F
8. Cc1c(C(=O)C(=O)NCC#N)c(C)n(C)c1C(=O)Nc1ccc(F)c(F)c1

10 to 90 nM
100 to 900 nM
1000 to 9000 nM
1 to 9 nM
1 to 9 nM
100 to 900 nM
100 to 900 nM
1 to 9 nM

====

# experiment.description: Cellular toxicity assay in Vero cells
# Assay type: cell-based
# reported.conditions: African green monkey, read-out: Cytotoxicity
Exercise: state measured CC50 for each of the molecules provided.
Answers are plain numbers, in µM.

Worked cases, CC50 given:
| cpd.smiles | u | CC50 |
| --- | --- | --- |
| Cn1cc(C(=O)C(=O)NCC#N)cc1C(=O)Nc1ccc(F)c(F)c1 | µM | 91.4 |
| C#CCNS(=O)(=O)c1cc(C(=O)Nc2ccc(F)c(F)c2)n(C)c1 | µM | 41 |
| Cn1cc(C(=O)C(=O)Nc2nccs2)cc1C(=O)Nc1ccc(F)c(F)c1 | µM | 31.2 |
| CCN(CC)C(=O)C(=O)c1c(C)c(C(=O)Nc2ccc(F)c(F)c2)n(C)c1C | µM | 47 |
| C#CCNC(=O)C(=O)c1c(C)c(C(=O)Nc2ccc(S(F)(F)(F)(F)F)cc2)n(C)c1C | µM | 12 |

For the 6 molecules below, give their CC50 values.
1. Cn1cc(C(=O)C(=O)NOC2CCCC2)cc1C(=O)Nc1ccc(F)c(F)c1
2. Cc1c(C(=O)C(=O)NCC#Cc2nccn2C)c(C)n(C)c1C(=O)Nc1ccc(F)c(F)c1
3. Cn1cc(NS(=O)(=O)c2ccccc2)cc1C(=O)Nc1ccc(F)c(F)c1
4. Cn1cc(C(=O)C(=O)N2CCOCC2)cc1C(=O)Nc1ccc(F)c(F)c1
5. C=CCNC(=O)C(=O)c1cc(C(=O)Nc2ccc(F)c(F)c2)n(C)c1
6. Cn1cc(C(=O)C(=O)Nc2ccccc2)cc1C(=O)Nc1ccc(F)c(F)c1

1: 80.1; 2: 7; 3: 22.9; 4: 41.9; 5: 68.1; 6: 13.4

Hello, the source for this data is patent US10752584B2, in case you need it.
